src = ChEMBL document CHEMBL6109070

tested on: pepsin; test: Proteolytic stability of compound assessed as pepsin (unknown origin)-mediated drug degradation at 40 mM by measuring half life measured after 24 hrs by RP-HPLC analysis; format: ADME; settings: human
experimentalEndpoint: half-life at 40000 µM (h)
Dear colleague, please return just the value in h, with no unit written.

Query: Tell me half-life at 40000 µM reported for `CCCCCCCCCCCCCCCC(=O)N[C@H](C(=O)N[C@H](Cc1cnc[nH]1)C(=O)N[C@@H](CCC(N)=O)C(=O)N[C@@H](CCC(=O)O)C(=O)N[C@@H](CC(C)C)C(=O)N[C@@H](CCCNC(=N)N)C(=O)N[C@@H](CCCNC(=N)N)C(=O)N[C@H](C(=O)NCC(=O)N[C@@H](CC(=O)O)C(=O)N[C@@H](CCC(=O)O)C(=O)N[C@@H](Cc1ccccc1)C(=O)O)[C@@H](C)CC)[C@@H](C)CC`
Response: 1.14
